Origin of the recorded values: patent US20240408169A1

biological target: CyclinA2/CDK2 (Homo sapiens); construct: purchased CRELUX Protein Services; experiment: Fluorescence Polarization (FP) competitive binding assay, Cyclin A2/Cdk2; settings: 8 nM Cyclin A2/Cdk2, 2 nM FAM probe; average of 2-3 independent experiments; read-out: Cyclin A FP IC50;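 note: plates equilibrated two hours at room temperature before polarization reading, IC50 fitted from eight-concentration compound titration curves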
*1 amine or outer side, *2 acyl side, *3 side chain or, on linkers, in order; H or OH if unused. Where a SMILES comes first, the peptide text is derived from it. Bridges are numbered along the chain shown (N, C = ends). [ ]: non-standard residue; d: D form. The star is where a group is joined. X92 = CN1CCN(C(=O)c2ccc(-c3ccc(Cl)cc3C[C@@H](C(=O)[*:2])N(C)[*:1])cc2)CC1; X93 = CN([C@@H](Cc1cc(Cl)ccc1-c1ccc(OC2CCOCC2)cc1)C(=O)[*:2])[*:1]; NMehhhLys(Me) = CN([C@@H](CCCCCCCN(C)[*:3])C(=O)[*:2])[*:1]; cBuCO(3,3-F2-1-CF3) = O=C(C1(C(F)(F)F)CC(F)(F)C1)*; Pro(trans-4-F) = O=C(O)[C@@H]1C[C@@H](F)CN1; Gly(cPr) = N[C@H](C(=O)O)C1CC1
The entries below come with measured IC50 values attached.
Property measured: IC50

Compound	Value reported
CC(C)C[C@@H]1NC(=O)[C@@H](N(C)C(=O)[C@@H](NC(=O)[C@@H]2C[C@@H](F)CN2C(=O)C2(C(F)(F)F)CC(F)(F)C2)C2CC2)CCCCCCCN(C)C(=O)[C@H](Cc2cc(Cl)ccc2-c2ccc(C(=O)N3CCN(C)CC3)cc2)N(C)C1=O [Example 390] ({cBuCO(3,3-F2-1-CF3)}-[Pro(trans-4-F)][Gly(cPr)][NMehhhLys(Me)]L[X92]; lactam 3-C)	20 nM
CC(C)C[C@@H]1NC(=O)[C@@H](N(C)C(=O)[C@@H](NC(=O)[C@@H]2C[C@@H](F)CN2C(=O)C2(C(F)(F)F)CC(F)(F)C2)C2CC2)CCCCCCCN(C)C(=O)[C@H](Cc2cc(Cl)ccc2-c2ccc(OC3CCOCC3)cc2)N(C)C1=O [Example 340] ({cBuCO(3,3-F2-1-CF3)}-[Pro(trans-4-F)][Gly(cPr)][NMehhhLys(Me)]L[X93]; lactam 3-C)	20 nM
